Test: Metabolic stability in liver microsomes, Method I, human
Assay type: in vitro ADME
Conditions: 1 μM test compound
Where a name gives a salt, the structure may show the parent alone.
Kindly supply the reported microsomal CLint values for the records listed here.

For C[C@H](Nc1nccc(N2C(=O)OC[C@@H]2[C@H](C)F)n1)c1cn(-c2ccc(C(F)F)cc2)cn1 [456 as TFA salt] , what is its reported microsomal CLint?
16.8 µL/min/mg

Cool, now C[C@H](Nc1ncc(F)c(N2C(=O)OC[C@@H]2CF)n1)c1cn(-c2ccc(C(F)F)cc2)cn1 [434 as TFA salt]
< 7.7 µL/min/mg

Cool, now C[C@H](Nc1nccc(N2C(=O)OC[C@@H]2CF)n1)c1cn(-c2ccc(C(F)F)c(F)c2)cn1 [475 as TFA salt]
< 7.7 µL/min/mg

Cool, now C[C@H](Nc1nccc(N2C(=O)OC[C@@H]2CF)n1)c1cn(-c2ccc(Cl)c(F)c2)cn1 [473 as TFA salt]
< 7.7 µL/min/mg

====

Assay: Metabolic stability in liver microsomes, Method I, rat
Type: in vitro ADME
Conditions: male, Sprague-Dawley, rat, liver microsomes, 1 μM test compound
Kindly supply the reported microsomal CLint at 1 μM values for the records listed here.
Reply with just the number (in µL/min/mg).

For CC(Nc1nccc(N2C(=O)OC[C@@H]2[C@@H](C)O)n1)c1nc(-c2ccc(C(F)(F)F)cc2)no1 (single isomer, unassigned) , what is its reported microsomal CLint at 1 μM?
48.5

Cool, now C[C@H](Nc1nccc(N2C(=O)OC[C@@H]2[C@H](C)F)n1)c1ncc(-c2cccc(C(F)(F)F)c2F)cn1
75.6

Cool, now C[C@H](Nc1ncc(F)c(N2C(=O)OC[C@@H]2CF)n1)c1ncc(-c2ccc(Cl)cc2)o1
65.2

====

Kindly supply the reported microsomal CLint values for the records listed here.
Assay: Metabolic stability in liver microsomes, Method II, human
Type: in vitro ADME
Conditions: 1 μM test compound, NADPH + UDPGA
Counter-ions that a name gives are not always drawn.
Reply with just the number (in µL/min/mg).

For C[C@H](Nc1ncc(F)c(N2C(=O)OC[C@@H]2[C@H](C)F)n1)c1cn(-c2ccc(F)cc2F)cn1 [479 as TFA salt] , what is its reported microsomal CLint?
11.9

Cool, now C[C@H](Nc1nccc(N2C(=O)OC[C@@H]2[C@H](C)F)n1)c1cn(-c2ccc(Cl)cc2F)cn1 [476 as TFA salt]
41.4

Cool, now C[C@H](Nc1nccc(N2C(=O)OC[C@@H]2[C@H](C)F)n1)c1cn(-c2ccc(F)cc2F)cn1 [478 as TFA salt]
10.9

====

Assay: Metabolic stability in liver microsomes, Method I, mouse
Assay type: in vitro ADME
Conditions: 1 μM test compound
Where a name gives a salt, the structure may show the parent alone.
Kindly supply the reported microsomal CLint values for the records listed here.
Reply with just the number (in µL/min/mg).

For C[C@H](Nc1nccc(N2C(=O)OC[C@@H]2CF)n1)c1cn(-c2ccc(C(F)F)c(F)c2)cn1 [475 as TFA salt] , what is its reported microsomal CLint?
15.7

Cool, now C[C@H](Nc1nccc(N2C(=O)OC[C@@H]2CF)n1)c1cn(-c2ccc(Cl)c(F)c2)cn1 [473 as TFA salt]
17.7

Cool, now C[C@H](Nc1ncc(F)c(N2C(=O)OC[C@@H]2CF)n1)c1cn(-c2ccc(C(F)F)cc2)cn1 [434 as TFA salt]
10.7
